Below, each entry is listed with its recorded Population Hoechst High Intensity Objects (%).
Tested on: U2OS
Assay: Multiplex assay against U2OS
Type: toxicity, cell-based
Settings: human, 48 h, 10 µM, compound concentration 10 uM, replicate 2
Only the number, expressed in %, is required.

Here is how some molecules turned out for Population Hoechst High Intensity Objects (%).
| molecule | val |
| --- | --- |
| C=CC(=O)Nc1cc(-n2c(=O)ccc3cnc4ccc(-c5ccc(NS(C)(=O)=O)cc5)cc4c32)ccc1C | 5 |
| Cl.NC[C@@H]1O[C@H](C23CC4CC(CC(C4)C2)C3)Cc2c1ccc(O)c2O | 34 |
| CCCCCNC(=N)N/N=C/c1c[nH]c2ccc(OC)cc12.O=C(O)/C=C\C(=O)O [TEGASEROD MALEATE] | 39 |

I would be grateful if you could share the reported Population Hoechst High Intensity Objects (%) for CC(C)[C@H](CO)Nc1nc(Nc2cccc(Cl)c2)c2ncn(C(C)C)c2n1 [PURVALANOLA] .
18

I would be grateful if you could share the reported Population Hoechst High Intensity Objects (%) for CC(C)c1cc(Nc2nc(N3CCC[C@H](N)C3)ncc2C(N)=O)cc(C(C)C)n1 .
26

I would be grateful if you could share the reported Population Hoechst High Intensity Objects (%) for C[C@@H](Oc1cc(-n2cnc3ccc(CN4CCN(C)CC4)cc32)sc1C(N)=O)c1ccccc1C(F)(F)F [GSK-461364] .
8
